Measured log10(IC50), listed per entry.
tested on: PRMT5-dependent Symmetric Di-methyl Arginine signal in HCT116 homozygous MTAP Knockout cells; test: SYM11 In-Cell Western in HCT116 homozygous MTAP knockout cells; assay type: cell-based; conditions: 4 days of treatment, SYM11/DRAQ5 ratio as percent of DMSO control, read-out: In-cell-Western (SYM11) IC50 (nM) HCT116 MTAP_KO
Assay Metric: log10(IC50) (log10 of the value in nM)

| Compound | log10(IC50) |
| --- | --- |
| Cn1ncc(-c2ccc3c(=O)[nH]nc(CN)c3c2)c1-c1c(F)c(Cl)c2ccccc2c1C#N (single isomer, unassigned) [Example 16-9] | 1.97 |
| Cn1ncc(-c2ccc3c(=O)[nH]nc(CN)c3c2)c1-c1c(F)c(Cl)c2ccccc2c1C#N (single isomer, unassigned) [Example 16-10] | 0.48 |
| Cn1ncc(-c2ccc3c(=O)[nH]nc(CN)c3c2)c1-c1c(C#N)cc2ccccc2c1Cl (single isomer, unassigned) [Example 16-5] | 2.43 |
| Cc1cc(-c2cnn(C)c2-c2c(F)cc3ccccc3c2C#N)cc2c(CN)n[nH]c(=O)c12 (single isomer, unassigned) [Example 16-15] | 1.23 |
| Cc1cc(-c2cnn(C)c2-c2c(F)c(Cl)c3ccccc3c2C#N)cc2c(CN)n[nH]c(=O)c12 (atropisomer, axis not shown; (M)) [Example 16-18] | 1.11 |

This collection of values is drawn from patent US20240208912A1.
